Hello, the source for this data is patent US20220378706A1, in case you need it.

Test: Multiple ascending dose study: plasma pharmacokinetics
Assay type: in vivo
Conditions: human, po, 400 mg, Day 14, 400 mg QD oral, Non-Japanese, read-out: tmax Median
readout_type: Tmax (h)
The figure you give is taken to be in h; do not add the unit.

Recorded result, COc1ncc(C)c(-c2ccc3c(c2)[nH]c(=O)c2cnn([C@H]4CCOC4)c23)c1C [Compound A] , Tmax: 1.79

* * *

Experiment: Single dose clinical study: plasma Compound A pharmacokinetics
Assay type: in vivo, human
Settings: human, plasma, po, 25 mg, plasma, healthy adults (Parts A,B), single oral 25 mg, fasted; read-out: AUC(0-t) GM
readout_type: AUC(0-t) (ng·h/mL)
Reply numerically in ng·h/mL, unit not repeated.

# AUC(0-t) of COc1ncc(C)c(-c2ccc3c(c2)[nH]c(=O)c2cnn([C@H]4CCOC4)c23)c1C = 4200

* * *

Experiment: Multiple ascending dose study: plasma pharmacokinetics
Assay type: in vivo
Settings: human, po, 100 mg, Day 14, 100 mg QD oral, read-out: AUC(0-24 h) Mean (SD)
Protocol: Four sequential cohorts of healthy participants (≥50 years and ≤85 years old) were treated with multiple ascending doses of Compound A up to the maximum tolerated dose (MTD). A total of 6 participants per cohort were randomized to Compound A. Proposed doses of Compound A were: Participants received Compound A capsules, orally once daily (QD) on Days 1 to 14 after an overnight fast of at least 10 hours. Compound A was administered orally with 240 milliliter (mL) (8 fluid ounces) of water. […]
readout_type: AUC(0-t) (ng·h/mL)
Give the quantity in ng·h/mL, number only.

The measured AUC(0-t) associated with COc1ncc(C)c(-c2ccc3c(c2)[nH]c(=O)c2cnn([C@H]4CCOC4)c23)c1C reads 16900

* * *

Assay: Multiple ascending dose study: plasma pharmacokinetics
Type: in vivo
Conditions: human, po, 400 mg, Day 14, 400 mg QD oral, Japanese, read-out: Cmax Mean (SD)
readout_type: Cmax (µg/mL)
Give just the numeric value; µg/mL need not be written.

Lab book: Cmax of COc1ncc(C)c(-c2ccc3c(c2)[nH]c(=O)c2cnn([C@H]4CCOC4)c23)c1C noted as 3.1

* * *

Experiment: Multiple ascending dose study: plasma pharmacokinetics
Format: in vivo
Conditions: human, po, 200 mg, Day 14, 200 mg QD oral, read-out: AUC(0-24 h) GM (% CV)
readout_type: AUC(0-t) (ng·h/mL)
Just the number in ng·h/mL, nothing appended.

// AUC(0-t) value for COc1ncc(C)c(-c2ccc3c(c2)[nH]c(=O)c2cnn([C@H]4CCOC4)c23)c1C : 22800

* * *

Test: Single dose clinical study: plasma Compound A pharmacokinetics
Format: in vivo, human
Settings: human, plasma, po, 50 mg, plasma, healthy adults (Parts A,B), single oral 50 mg, fasted; read-out: t1/2 Mean (converted)
readout_type: half-life (h)
Answer with a number only, understood to be in h.

Memo: COc1ncc(C)c(-c2ccc3c(c2)[nH]c(=O)c2cnn([C@H]4CCOC4)c23)c1C , reported half-life: 26.9

* * *

Assay: Single dose clinical study: plasma Compound A pharmacokinetics
Assay type: in vivo, human
Conditions: human, plasma, oral, 25 mg, non-Japanese, 25 mg, without weight as covariate; read-out: AUC(O-inf) Geometric LS Means Reference
readout_type: AUC (ng·h/mL)
Expressed in ng·h/mL, but write only the number.

AUC reading for COc1ncc(C)c(-c2ccc3c(c2)[nH]c(=O)c2cnn([C@H]4CCOC4)c23)c1C : 4340

* * *

Assay: Multiple ascending dose study: plasma pharmacokinetics
Type: in vivo
Details: human, po, 10 mg, Day 14, 10 mg QD oral, read-out: Cmax Mean (SD)
readout_type: Cmax (ng/mL)
Express it in ng/mL; write the number only.

What the record says about COc1ncc(C)c(-c2ccc3c(c2)[nH]c(=O)c2cnn([C@H]4CCOC4)c23)c1C : Cmax is 137

* * *

Experiment: Multiple ascending dose study: plasma pharmacokinetics
Format: in vivo
Conditions: human, po, 10 mg, Day 1, 10 mg QD oral, read-out: AUC(0-24 h) Mean (SD)
readout_type: AUC(0-t) (ng·h/mL)
Give a bare numeral; the unit ng·h/mL is implied.

AUC(0-t) reading for COc1ncc(C)c(-c2ccc3c(c2)[nH]c(=O)c2cnn([C@H]4CCOC4)c23)c1C [Compound A] : 784

* * *

Test: Multiple ascending dose study: plasma pharmacokinetics
Assay type: in vivo
Conditions: human, po, 10 mg, Day 1, 10 mg QD oral, read-out: AUC(0-24 h) GM (% CV)
readout_type: AUC(0-t) (ng·h/mL)
Respond with the bare value in ng·h/mL.

Summary for this molecule, COc1ncc(C)c(-c2ccc3c(c2)[nH]c(=O)c2cnn([C@H]4CCOC4)c23)c1C : AUC(0-t) is 781

* * *

Assay: Single dose clinical study: plasma Compound A pharmacokinetics
Assay type: in vivo, human
Conditions: human, plasma, po, 50 mg, plasma, healthy adults (Parts A,B), single oral 50 mg, fasted; read-out: Cmax GM
readout_type: Cmax (ng/mL)
Dear colleague, please return just the value in ng/mL, with no unit written.

Item: COc1ncc(C)c(-c2ccc3c(c2)[nH]c(=O)c2cnn([C@H]4CCOC4)c23)c1C | Cmax: 225

* * *

Assay: Single dose clinical study: plasma Compound A pharmacokinetics
Format: in vivo, human
Conditions: human, plasma, oral, 100 mg, Japanese, 100 mg, without weight as covariate; read-out: AUC(O-inf) Geometric LS Means Test
readout_type: AUC (ng·h/mL)
Answer in ng·h/mL, number only, no unit symbol.

response.value for COc1ncc(C)c(-c2ccc3c(c2)[nH]c(=O)c2cnn([C@H]4CCOC4)c23)c1C [Compound A] (field: AUC) = 14200

* * *

Assay: Single dose clinical study Part B: CSF Compound A pharmacokinetics
Type: in vivo
Details: human, CSF and plasma, po, 75 mg, healthy adults Part B, single oral 75 mg, fasted; from AUC (0-t) or AUC (0-30 h); read-out: CSF: plasma AUC ratio (expressed as %) GM (% CV)
Method: After the Screening Period, subjects returned to the clinic on […] for Baseline procedures. […] Serial CSF sampling via the lumbar catheter commenced on Day 1, after an overnight fast. CSF samples were collected on Day 1 over a period of 3 hours predose. […] Concentrations of Compound A in CSF were analyzed in serial CSF samples collected at predose and postdose at 1, 2, 3, 4, 5, 6, 8, 10, 12, 14, 16, 18, 24, and 30 hours. […]
readout_type: Kp
# output: bare number, no unit

# compound COc1ncc(C)c(-c2ccc3c(c2)[nH]c(=O)c2cnn([C@H]4CCOC4)c23)c1C ; its Kp = 0.0264

* * *

Assay: Multiple ascending dose study: plasma pharmacokinetics
Type: in vivo
Conditions: human, po, 10 mg, Day 14, 10 mg QD oral, read-out: AUC(0-inf) GM (% CV)
readout_type: AUC(0-inf) (µg·h/mL)
All answers are understood in µg·h/mL, so give the number only.

GET /value?item= COc1ncc(C)c(-c2ccc3c(c2)[nH]c(=O)c2cnn([C@H]4CCOC4)c23)c1C &field=AUC(0-inf) returns 5.1

* * *

Assay: Multiple ascending dose study: plasma pharmacokinetics
Format: in vivo
Conditions: human, po, 400 mg, Day 1, 400 mg QD oral, Japanese, read-out: tmax Median
readout_type: Tmax (h)
Answer format: numeric, h implied, no suffix.

Sure, the documented Tmax for COc1ncc(C)c(-c2ccc3c(c2)[nH]c(=O)c2cnn([C@H]4CCOC4)c23)c1C [Compound A] is 2

* * *

Assay: Multiple ascending dose study: plasma pharmacokinetics
Format: in vivo
Conditions: human, po, 200 mg, Day 1, 200 mg QD oral, read-out: Cmax GM (% CV)
Protocol: Four sequential cohorts of healthy participants (≥50 years and ≤85 years old) were treated with multiple ascending doses of Compound A up to the maximum tolerated dose (MTD). A total of 6 participants per cohort were randomized to Compound A. Proposed doses of Compound A were: Participants received Compound A capsules, orally once daily (QD) on Days 1 to 14 after an overnight fast of at least 10 hours. Compound A was administered orally with 240 milliliter (mL) (8 fluid ounces) of water. […]
readout_type: Cmax (ng/mL)
Please reply with the bare figure in ng/mL and do not write the unit itself.

For reference, reported Cmax for COc1ncc(C)c(-c2ccc3c(c2)[nH]c(=O)c2cnn([C@H]4CCOC4)c23)c1C [Compound A] stands at 687

* * *

Experiment: Single dose clinical study: plasma Compound A pharmacokinetics
Type: in vivo, human
Conditions: human, plasma, oral, 25 mg, Japanese, 25 mg, without weight as covariate; read-out: Cmax Geometric LS Means Test
readout_type: Cmax (ng/mL)
The response must be a number in ng/mL with no trailing unit.

# Cmax (compound: COc1ncc(C)c(-c2ccc3c(c2)[nH]c(=O)c2cnn([C@H]4CCOC4)c23)c1C ) is 212

* * *

Assay: Single dose clinical study: plasma Compound A pharmacokinetics
Assay type: in vivo, human
Details: human, plasma, po, 1200 mg, plasma, healthy adults (Parts A,B), single oral 1200 mg, fasted; read-out: Cmax GM
readout_type: Cmax (ng/mL)
Only the number, expressed in ng/mL, is required.

Summary for this compound, COc1ncc(C)c(-c2ccc3c(c2)[nH]c(=O)c2cnn([C@H]4CCOC4)c23)c1C [Compound A] : Cmax is 1780
